Reference source for all entries: patent US20250090699A1

Target: mouse FAP (Mus musculus)
Construct: biotinylated His, Avi tag, mouse FAP (26-761, FAP-M82Q5); His; Avi tag (biotinylated); purchased AcroBiosystems FAP-M82Q5
Sequence (P97321 26-761): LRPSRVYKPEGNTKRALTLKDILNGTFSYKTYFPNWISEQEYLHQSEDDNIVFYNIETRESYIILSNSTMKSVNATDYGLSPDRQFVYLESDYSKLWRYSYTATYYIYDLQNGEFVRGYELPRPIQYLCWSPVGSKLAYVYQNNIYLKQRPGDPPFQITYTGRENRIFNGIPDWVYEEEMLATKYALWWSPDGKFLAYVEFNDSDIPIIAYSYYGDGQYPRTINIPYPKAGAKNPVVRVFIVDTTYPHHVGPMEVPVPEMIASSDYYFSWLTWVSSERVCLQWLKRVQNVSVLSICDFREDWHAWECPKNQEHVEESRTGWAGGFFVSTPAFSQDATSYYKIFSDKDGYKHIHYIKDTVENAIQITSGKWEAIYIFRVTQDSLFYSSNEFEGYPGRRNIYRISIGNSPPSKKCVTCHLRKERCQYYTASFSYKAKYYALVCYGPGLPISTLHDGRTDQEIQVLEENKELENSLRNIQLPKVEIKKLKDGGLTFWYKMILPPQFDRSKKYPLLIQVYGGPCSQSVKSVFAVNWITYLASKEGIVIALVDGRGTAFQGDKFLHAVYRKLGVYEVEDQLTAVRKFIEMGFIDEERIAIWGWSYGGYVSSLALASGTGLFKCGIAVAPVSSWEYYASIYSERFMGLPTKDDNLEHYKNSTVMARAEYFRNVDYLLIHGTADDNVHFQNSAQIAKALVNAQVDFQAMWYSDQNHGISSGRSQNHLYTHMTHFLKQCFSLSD
Assay: Surface plasmon resonance (SPR) for peptide affinity, mouse FAP
Format: binding
pKd: −log10 of the molar value. Counter-ions that a name gives are not always drawn. Starred links: 1 amine or outer side, 2 acyl side, 3 side chain; linkers in the order of their positions; H or OH if unused. Non-standard residues stand in square brackets, D forms with d. Residues, ends and D or L forms follow the SMILES beside them. Groups on a side chain read outwards from the residue. *: point of attachment. Piperazinyl(4-CH2COOH) = O=C(O)CN1CCN(*)CC1; 3Pal(6-NH2) = Nc1ccc(C[C@H](N)C(=O)O)cn1; AEF = NCCOc1ccc(C[C@H](N)C(=O)O)cc1; NMeF = CN[C@@H](Cc1ccccc1)C(=O)O; d(αMeP) = C[C@]1(C(=O)O)CCCN1; Ahp(2) = CCCCC[C@H](N)C(=O)O; hSer = N[C@@H](CCO)C(=O)O; CO = O=C([*:1])[*:2]
Reported pKd is given for each of the following molecules.
measured_attribute: pKd

* CCCCC[C@@H]1NC(=O)[C@H](Cc2ccc(OCCN)cc2)NC(=O)[C@H](Cc2ccccc2)N(C)C(=O)CNC(=O)CNC(=O)[C@H]2CCCN2C(=O)[C@H](CC(=O)O)NC(=O)[C@H](CCCCNC(=O)N2CCN(CC(=O)O)CC2)NC(=O)CNC(=O)[C@H](Cc2c[nH]c3ccccc23)NC1=O [Example A6, TFA salt] (cyclo([AEF][Ahp(2)]WGK([CO-Piperazinyl(4-CH2COOH)])D[dP]GG[NMeF])) | 9.73
* CCCCC[C@@H]1NC(=O)[C@H](Cc2ccc(OCCN)cc2)NC(=O)[C@H](Cc2ccccc2)N(C)C(=O)CNC(=O)CNC(=O)[C@H]2CCCN2C(=O)[C@H](CC(=O)O)NC(=O)[C@H](Cc2ccc(N)nc2)NC(=O)CNC(=O)[C@H](Cc2c[nH]c3ccccc23)NC1=O [Example A45, TFA salt] (cyclo([AEF][Ahp(2)]WG[3Pal(6-NH2)]D[dP]GG[NMeF])) | 9.27
* CCCCC[C@@H]1NC(=O)[C@H](Cc2ccc(OCCN)cc2)NC(=O)[C@H](Cc2ccccc2)N(C)C(=O)CNC(=O)[C@H](CCO)NC(=O)[C@H]2CCCN2C(=O)[C@H](CC(=O)O)NC(=O)[C@H](Cc2ccc(O)cc2)NC(=O)CNC(=O)[C@H](Cc2c[nH]c3ccccc23)NC1=O [Example A47, TFA salt] (cyclo([AEF][Ahp(2)]WGYD[dP][hSer]G[NMeF])) | 9.32
* CCCCC[C@@H]1NC(=O)[C@H](Cc2ccc(O)cc2)NC(=O)[C@H](Cc2ccccc2)N(C)C(=O)CNC(=O)CNC(=O)[C@@]2(C)CCCN2C(=O)[C@H](CC(=O)O)NC(=O)[C@H](Cc2ccc(O)cc2)NC(=O)CNC(=O)[C@H](Cc2c[nH]c3ccccc23)NC1=O [Example A70] (cyclo([Ahp(2)]WGYD[d(αMeP)]GG[NMeF]Y)) | 9.98

###

target: mouse FAP (Mus musculus); construct: biotinylated His, Avi tag, mouse FAP (26-761, FAP-M82Q5); His; Avi tag (biotinylated); purchased AcroBiosystems FAP-M82Q5; test: Surface plasmon resonance (SPR) for peptide affinity, mouse FAP; type: binding
Structures can show the parent of a compound that is named as a salt. Starred links: 1 amine or outer side, 2 acyl side, 3 side chain; linkers in the order of their positions; H or OH if unused. Non-standard residues stand in square brackets, D forms with d. Residues, ends and D or L forms follow the SMILES beside them. Groups on a side chain read outwards from the residue. *: point of attachment. NOTA = O=C(O)CN1CCN(CC(=O)O)CCN(CC(=O)*)CC1; Phe(4-CH2NH2) = NCc1ccc(C[C@H](N)C(=O)O)cc1; Piperazinyl(4-CH2COOH) = O=C(O)CN1CCN(*)CC1; NMeF = CN[C@@H](Cc1ccccc1)C(=O)O; Aoc(2) = CCCCCC[C@H](N)C(=O)O; hSer = N[C@@H](CCO)C(=O)O; AEEA = NCCOCCOCC(=O)O; CO = O=C([*:1])[*:2]; Propyl = CCC*
Reported Kd is given for each of the following compounds.
measured_attribute: Kd

* CCCOCC[C@@H]1NC(=O)[C@H](Cc2ccc(CNC(=O)COCCOCCN)cc2)NC(=O)[C@H](Cc2ccccc2)N(C)C(=O)CNC(=O)CNC(=O)[C@H]2CCCN2C(=O)[C@H](CC(=O)O)NC(=O)[C@H](CCCCNC(=O)N2CCN(CC(=O)O)CC2)NC(=O)CNC(=O)[C@H](Cc2c[nH]c3ccccc23)NC1=O [Example A2, TFA salt] (cyclo(D[dP]GG[NMeF][Phe(4-CH2NH2)](AEEA)[hSer](Propyl)WGK([CO-Piperazinyl(4-CH2COOH)]))) | < 23 pM
* CCCCCC[C@@H]1NC(=O)[C@H](Cc2ccc(CNC(=O)COCCOCCNC(=O)CN3CCN(CC(=O)O)CCN(CC(=O)O)CC3)cc2)NC(=O)[C@H](Cc2ccccc2)N(C)C(=O)CNC(=O)CNC(=O)[C@H]2CCCN2C(=O)[C@H](CC(=O)O)NC(=O)[C@H](CCCCNC(=O)N2CCN(CC(=O)O)CC2)NC(=O)CNC(=O)[C@H](Cc2c[nH]c3ccccc23)NC1=O [Example B40] (cyclo(GG[NMeF][Phe(4-CH2NH2)]([AEEA-NOTA])[Aoc(2)]WGK([CO-Piperazinyl(4-CH2COOH)])D[dP])) | < 24 pM
* CCCCCC[C@@H]1NC(=O)[C@H](Cc2ccc(CNC(=O)COCCOCCNC(=S)Nc3ccc(CC4CN(CC(=O)O)CCN(CC(=O)O)CCN(CC(=O)O)CCN4CC(=O)O)cc3)cc2)NC(=O)[C@H](Cc2ccccc2)N(C)C(=O)CNC(=O)CNC(=O)[C@H]2CCCN2C(=O)[C@H](CC(=O)O)NC(=O)[C@H](CCCCNC(=O)N2CCN(CC(=O)O)CC2)NC(=O)CNC(=O)[C@H](Cc2c[nH]c3ccccc23)NC1=O (stereo partly drawn) | < 22 pM
